All figures here come from patent US11673876B2.

Assay: Pharmacokinetics in dogs, single IV or oral administration
Type: in vivo, dog
Conditions: blood, 1 mg/kg; dog, IV, 1 mpk
Measured Endpoint: C0 (ng/mL)

> print(dat)
                                   compound  unit.symbol  reading
1  C[C@@H](Nc1ncnc2ccc(-c3cnc(Cl)c(NS(C)(=O)=O)c3)cc12)c1ccccc1        ng/mL     7150
2  CS(=O)(=O)Nc1cc(-c2ccc3ncnc(Nc4ccc(F)c(Cl)c4)c3c2)cnc1Cl [Comparative Compound 2, reference compound]        ng/mL     5490

* * *

As shown below, each of these molecules has a reported IC50 value.
Target: DNA-PK (Homo sapiens (Human), UniProt P78527)
Measured Endpoint: IC50

> print(dat)
                                   molecule  measured.endpoint  reading
1  C[C@H](Nc1c(C#N)cnc2ccc(-c3cnc(Cl)c(NS(C)(=O)=O)c3)cc12)c1ccccc1 [Compound 48S]               IC50   < 2 nM
2  CS(=O)(=O)Nc1cc(-c2ccc3ncnc(NCc4ccccc4)c3c2)cnc1Cl [Comparative Compound 1, reference compound]               IC50   < 2 nM
3  CS(=O)(=O)Nc1cc(-c2ccc3ncnc(Nc4ccc(F)c(Cl)c4)c3c2)cnc1Cl [Comparative Compound 2, reference compound]               IC50   < 2 nM

* * *

Target: EGFR (Homo sapiens (Human), UniProt P00533)
Sequence (P00533 25-1210): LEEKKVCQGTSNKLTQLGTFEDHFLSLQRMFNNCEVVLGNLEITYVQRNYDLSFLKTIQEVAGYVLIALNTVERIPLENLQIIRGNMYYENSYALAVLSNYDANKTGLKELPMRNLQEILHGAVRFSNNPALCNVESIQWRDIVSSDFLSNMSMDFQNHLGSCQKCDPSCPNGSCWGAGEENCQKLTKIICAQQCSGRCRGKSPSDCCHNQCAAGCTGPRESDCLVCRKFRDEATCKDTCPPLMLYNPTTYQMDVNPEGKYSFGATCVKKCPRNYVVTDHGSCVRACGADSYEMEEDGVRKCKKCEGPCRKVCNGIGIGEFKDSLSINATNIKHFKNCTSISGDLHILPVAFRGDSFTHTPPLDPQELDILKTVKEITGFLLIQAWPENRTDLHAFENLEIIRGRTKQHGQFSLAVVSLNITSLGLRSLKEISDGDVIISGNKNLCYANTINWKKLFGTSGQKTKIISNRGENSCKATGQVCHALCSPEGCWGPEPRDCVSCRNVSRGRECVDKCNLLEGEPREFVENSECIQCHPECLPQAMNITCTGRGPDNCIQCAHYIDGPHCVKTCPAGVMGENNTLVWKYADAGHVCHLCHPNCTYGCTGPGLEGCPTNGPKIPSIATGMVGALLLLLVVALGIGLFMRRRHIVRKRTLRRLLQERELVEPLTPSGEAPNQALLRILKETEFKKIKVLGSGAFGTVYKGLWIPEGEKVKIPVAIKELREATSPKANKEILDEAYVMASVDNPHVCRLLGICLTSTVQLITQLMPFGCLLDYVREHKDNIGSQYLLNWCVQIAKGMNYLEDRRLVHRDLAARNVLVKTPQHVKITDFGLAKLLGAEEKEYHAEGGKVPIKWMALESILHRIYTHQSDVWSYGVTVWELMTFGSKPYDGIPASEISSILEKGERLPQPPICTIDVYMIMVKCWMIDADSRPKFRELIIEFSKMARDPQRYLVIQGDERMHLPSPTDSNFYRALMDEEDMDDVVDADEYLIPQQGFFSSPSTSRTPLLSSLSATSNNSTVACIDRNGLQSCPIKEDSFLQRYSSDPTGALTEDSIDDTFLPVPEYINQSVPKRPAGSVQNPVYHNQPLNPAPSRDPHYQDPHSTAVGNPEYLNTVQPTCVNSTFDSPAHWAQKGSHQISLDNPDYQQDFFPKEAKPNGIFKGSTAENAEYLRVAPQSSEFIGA
Experiment: Z'-LYTE / Adapta kinase assay, EGFR
Type: biochemical
Conditions: read-out: EGFR % Inh. @ 100 nM
Measured Endpoint: inhibition at 0.1 µM

> print(dat)
                                    molecule     measured.endpoint    reading
 1  Cc1nc2cc(-c3ccc4ncc(C#N)c(NC(C)c5ccccc5)c4c3)cnc2[nH]1 (stereo not shown)  inhibition at 0.1 µM  10 to 80%
 2  C[C@@H](Nc1ncnc2ccc(-c3cncc(-c4nnc[nH]4)c3)cc12)c1ccccc1  inhibition at 0.1 µM      > 90%
 3  CC(Nc1c(C#N)cnc2ccc(-c3ccc4oc(N)nc4c3)cc12)c1ccccc1 (stereo not shown)  inhibition at 0.1 µM  80 to 90%
 4  C[C@@H](Nc1c(C#N)cnc2ccc(-c3cnc(Cl)c(NS(C)(=O)=O)c3)cc12)c1ccccc1 [Compound 48R]  inhibition at 0.1 µM      > 90%
 5  C[C@H](Nc1ncnc2ccc(-c3cnc(Cl)c(NS(C)(=O)=O)c3)cc12)c1ccc(F)cc1 [Compound 111S]  inhibition at 0.1 µM      < 10%
 6  CS(=O)(=O)Nc1cc(-c2ccc3ncc(C#N)c(NC4c5ccccc5CC4O)c3c2)cnc1Cl (stereo not shown)  inhibition at 0.1 µM      < 10%
 7  C[C@@H](Nc1ncnc2ccc(-c3cnc(Cl)c(NS(C)(=O)=O)c3)cc12)c1ccccc1  inhibition at 0.1 µM  80 to 90%
 8  CC(Nc1c(C#N)cnc2ccc(-c3cccc(-c4nnc[nH]4)c3)cc12)c1ccccc1 (stereo not shown)  inhibition at 0.1 µM  80 to 90%
 9  CC(Nc1c(C#N)cnc2ccc(-c3cnc4ccccc4c3)cc12)c1ccccc1 (stereo not shown)  inhibition at 0.1 µM  10 to 80%
10  CC(Nc1c(C#N)cnc2ccc(-c3cccc(-c4n[nH]c(=O)o4)c3)cc12)c1ccccc1 (stereo not shown)  inhibition at 0.1 µM  80 to 90%
11  CS(=O)(=O)Nc1cc(-c2ccc3ncc(C#N)c(NC4(c5ccccc5)CC4)c3c2)cnc1Cl  inhibition at 0.1 µM  10 to 80%
12  CC(Nc1c(C#N)cnc2ccc(-c3cnc(N)c(C(F)(F)F)c3)cc12)c1ccccc1 (stereo not shown)  inhibition at 0.1 µM  10 to 80%
13  CC(Nc1c(C#N)cnc2ccc(-c3cncc(C(C)(C)O)c3)cc12)c1ccccc1 (stereo not shown)  inhibition at 0.1 µM  10 to 80%
14  C[C@@H](Nc1c(C#N)cnc2ccc(-c3cnc(Cl)c(NS(C)(=O)=O)c3)cc12)c1ccc(F)cc1 [Compound 97R]  inhibition at 0.1 µM  10 to 80%
15  COC(=O)c1cncc(-c2ccc3ncnc(N[C@H](C)c4ccccc4)c3c2)c1  inhibition at 0.1 µM      > 90%
16  CC(Nc1ncnc2ccc(-c3cnc4cnccn34)cc12)c1ccccc1 (stereo not shown)  inhibition at 0.1 µM  10 to 80%

* * *

Experiment: Solubility determination (PBS 7.4, SIF, SGF)
Format: physicochemical
Conditions: aqueous buffer, kinetic from dmso stock; PBS pH 7.4, 25° C., 2 hours; read-out: Solubility pH 7.4 PBS buffer
Method: Preparation of stock solutions: The stock solutions of test compounds and control compound diclofenac were prepared in DMSO at the concentrations of 10 mM. […] Procedure for sample analysis: The plate was placed into the well plate autosampler. The samples were evaluated by LC-MS/MS analysis. Data analysis: All calculations were carried out using Microsoft Excel. […] Solubility values of the test compound and control compound were calculated as follows: […]
Measured Endpoint: solubility at 2 h

> print(dat)
                                   molecule  measured.endpoint        reading
1  C[C@@H](Nc1ncnc2ccc(-c3cnc(Cl)c(NS(C)(=O)=O)c3)cc12)c1ccccc1  solubility at 2 h  100 to 200 µM
2  C[C@@H](Nc1ncnc2ccc(-c3cnc(Cl)c(NS(C)(=O)=O)c3)cc12)c1ccc(F)cc1 [Compound 111R]  solubility at 2 h   20 to 100 µM
3  CS(=O)(=O)Nc1cc(-c2ccc3ncnc(Nc4ccc(F)c(Cl)c4)c3c2)cnc1Cl [Comparative Compound 2, reference compound]  solubility at 2 h        ≤ 20 µM
4  CS(=O)(=O)Nc1cc(-c2ccc3ncnc(NCc4ccccc4)c3c2)cnc1Cl [Comparative Compound 1, reference compound]  solubility at 2 h        ≤ 20 µM

* * *

Test: Pharmacokinetics in dogs, single IV or oral administration
Format: in vivo, dog
Conditions: blood, 1 mg/kg; dog, IV, 1 mpk
As shown below, each of these compounds has a reported half-life value.
Measured Endpoint: half-life (h)

> print(dat)
                                   compound  reading
1  CS(=O)(=O)Nc1cc(-c2ccc3ncnc(Nc4ccc(F)c(Cl)c4)c3c2)cnc1Cl [Comparative Compound 2, reference compound]      0.7
2  C[C@@H](Nc1ncnc2ccc(-c3cnc(Cl)c(NS(C)(=O)=O)c3)cc12)c1ccccc1     10.4

* * *

Molecular target: PI3Ka (Homo sapiens (Human))
Sequence (P42336 whole entry): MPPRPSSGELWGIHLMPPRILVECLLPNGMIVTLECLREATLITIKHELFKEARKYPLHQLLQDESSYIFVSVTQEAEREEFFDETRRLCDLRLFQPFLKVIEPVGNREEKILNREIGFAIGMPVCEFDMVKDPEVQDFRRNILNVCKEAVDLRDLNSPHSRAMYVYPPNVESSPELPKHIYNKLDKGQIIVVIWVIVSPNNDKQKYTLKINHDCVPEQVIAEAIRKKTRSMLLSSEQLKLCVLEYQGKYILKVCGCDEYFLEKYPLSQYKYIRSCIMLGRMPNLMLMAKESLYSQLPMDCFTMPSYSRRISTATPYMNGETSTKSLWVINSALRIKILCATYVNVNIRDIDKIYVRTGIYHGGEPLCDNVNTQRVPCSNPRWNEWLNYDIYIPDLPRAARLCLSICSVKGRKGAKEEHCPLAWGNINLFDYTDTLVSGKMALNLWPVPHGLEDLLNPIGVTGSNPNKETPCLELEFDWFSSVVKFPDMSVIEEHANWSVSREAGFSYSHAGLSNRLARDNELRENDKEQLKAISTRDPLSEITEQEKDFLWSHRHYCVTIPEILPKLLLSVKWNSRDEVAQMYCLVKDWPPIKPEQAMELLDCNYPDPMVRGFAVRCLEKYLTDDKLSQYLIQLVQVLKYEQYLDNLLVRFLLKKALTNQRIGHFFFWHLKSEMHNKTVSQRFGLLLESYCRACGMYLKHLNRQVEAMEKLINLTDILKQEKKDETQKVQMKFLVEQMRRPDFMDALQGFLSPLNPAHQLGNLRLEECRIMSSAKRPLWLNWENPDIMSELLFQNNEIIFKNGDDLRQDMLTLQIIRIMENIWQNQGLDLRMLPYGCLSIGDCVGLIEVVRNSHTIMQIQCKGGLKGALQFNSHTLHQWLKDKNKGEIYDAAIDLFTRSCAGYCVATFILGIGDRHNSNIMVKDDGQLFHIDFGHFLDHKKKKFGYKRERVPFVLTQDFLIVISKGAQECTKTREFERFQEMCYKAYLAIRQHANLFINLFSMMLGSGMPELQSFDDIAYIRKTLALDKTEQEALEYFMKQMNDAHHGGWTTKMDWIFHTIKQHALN
Sequence (P27986 whole entry partner): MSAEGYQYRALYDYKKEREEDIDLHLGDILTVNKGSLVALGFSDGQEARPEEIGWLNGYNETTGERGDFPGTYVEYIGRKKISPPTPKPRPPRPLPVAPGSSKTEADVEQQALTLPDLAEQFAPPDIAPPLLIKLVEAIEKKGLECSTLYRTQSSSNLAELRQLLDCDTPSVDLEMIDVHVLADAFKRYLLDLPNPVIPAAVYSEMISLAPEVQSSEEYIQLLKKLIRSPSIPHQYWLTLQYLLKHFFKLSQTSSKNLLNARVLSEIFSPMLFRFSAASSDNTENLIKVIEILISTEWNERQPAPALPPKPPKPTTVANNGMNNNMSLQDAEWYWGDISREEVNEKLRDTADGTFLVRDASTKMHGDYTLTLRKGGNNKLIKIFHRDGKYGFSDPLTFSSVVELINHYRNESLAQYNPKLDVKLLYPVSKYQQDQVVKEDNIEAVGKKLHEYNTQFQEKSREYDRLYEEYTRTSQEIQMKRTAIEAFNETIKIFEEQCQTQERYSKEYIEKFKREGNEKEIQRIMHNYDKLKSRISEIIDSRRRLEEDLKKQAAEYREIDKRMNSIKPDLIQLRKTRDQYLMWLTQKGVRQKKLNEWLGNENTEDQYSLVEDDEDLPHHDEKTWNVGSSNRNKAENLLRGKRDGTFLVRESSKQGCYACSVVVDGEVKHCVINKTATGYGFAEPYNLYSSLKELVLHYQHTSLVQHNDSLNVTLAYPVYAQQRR
pIC50: −log10 of the molar value.
As shown below, each of these molecules has a reported pIC50 value.
Measured Endpoint: pIC50

> print(dat)
                                   molecule       reading
1  CC(Nc1c(C#N)cnc2ccc(-c3cncc(-c4n[nH]c(=O)o4)c3)cc12)c1ccccc1 (centres unmarked)  6.70 to 7.70
2  C[C@@H](Nc1ncnc2ccc(-c3cnc(Cl)c(NS(C)(=O)=O)c3)cc12)c1ccc(F)cc1 [Compound 111R]  7.70 to 8.70
3  COc1cc(-c2ccc3ncnc(NC(C)c4ccccc4)c3c2)cnc1OC (centres unmarked)  6.70 to 7.70
4  C[C@@H](Nc1ncnc2ccc(-c3cnc(Cl)c(NS(C)(=O)=O)c3)cc12)c1ccccc1  7.70 to 8.70
5  C[C@H](Nc1c(C#N)cnc2ccc(-c3cnc(Cl)c(NS(C)(=O)=O)c3)cc12)c1ccc(F)cc1 [Compound 97S]        > 8.70

* * *

As shown below, each of these compounds has a reported inhibition at 0.1 µM value.
Target: DNA-PK (Homo sapiens (Human))
Assay: Z'-LYTE / Adapta kinase assay, DNA-PK
Assay type: biochemical
Conditions: read-out: DNA-PK % Inh. @ 100 nM
Measured Endpoint: inhibition at 0.1 µM

> print(dat)
                                   compound            experimental.target     measured.endpoint    reading
1  COC(=O)c1cncc(-c2ccc3ncnc(N[C@H](C)c4ccccc4)c3c2)c1 [Compound 135]  DNA-PK (Homo sapiens (Human))  inhibition at 0.1 µM      < 10%
2  CC(Nc1ncnc2ccc(-c3cncc(C(C)(C)O)c3)cc12)c1ccccc1 (centres unmarked) [Compound 21]  DNA-PK (Homo sapiens (Human))  inhibition at 0.1 µM  10 to 80%
3  CS(=O)(=O)Nc1cc(-c2ccc3ncnc(NCc4ccccc4)c3c2)cnc1Cl [Comparative Compound 1, reference compound]  DNA-PK (Homo sapiens (Human))  inhibition at 0.1 µM      > 90%
4  CC(Nc1c(C#N)cnc2ccc(-c3n[nH]c4cnccc34)cc12)c1ccccc1 (centres unmarked) [Compound 125]  DNA-PK (Homo sapiens (Human))  inhibition at 0.1 µM  10 to 80%
5  CC(Nc1c(C#N)cnc2ccc(-c3cnc4ccccc4c3)cc12)c1ccccc1 (centres unmarked) [Compound 122]  DNA-PK (Homo sapiens (Human))  inhibition at 0.1 µM      < 10%
6  C[C@@H](Nc1ncnc2ccc(-c3cnc(Cl)c(NS(C)(=O)=O)c3)cc12)c1ccc(F)cc1 [Compound 111R]  DNA-PK (Homo sapiens (Human))  inhibition at 0.1 µM  80 to 90%
7  CS(=O)(=O)Nc1cc(-c2ccc3ncc(C#N)c(NC4(c5ccccc5)CC4)c3c2)cnc1Cl [Compound 106]  DNA-PK (Homo sapiens (Human))  inhibition at 0.1 µM      > 90%
8  C[C@@H](Nc1ncnc2ccc(-c3cncc(C(=O)NC#N)c3)cc12)c1ccccc1 [Compound 133]  DNA-PK (Homo sapiens (Human))  inhibition at 0.1 µM      < 10%
